Measurement target: T1, CRBN, Q96SW2;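 further: pooled lentiviral library of zinc finger degron-EGFP fusions in mCherry-positive Jurkat cells, FACS-sorted after compound exposure, with degron abundance counted by next-generation sequencing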
T1 chain: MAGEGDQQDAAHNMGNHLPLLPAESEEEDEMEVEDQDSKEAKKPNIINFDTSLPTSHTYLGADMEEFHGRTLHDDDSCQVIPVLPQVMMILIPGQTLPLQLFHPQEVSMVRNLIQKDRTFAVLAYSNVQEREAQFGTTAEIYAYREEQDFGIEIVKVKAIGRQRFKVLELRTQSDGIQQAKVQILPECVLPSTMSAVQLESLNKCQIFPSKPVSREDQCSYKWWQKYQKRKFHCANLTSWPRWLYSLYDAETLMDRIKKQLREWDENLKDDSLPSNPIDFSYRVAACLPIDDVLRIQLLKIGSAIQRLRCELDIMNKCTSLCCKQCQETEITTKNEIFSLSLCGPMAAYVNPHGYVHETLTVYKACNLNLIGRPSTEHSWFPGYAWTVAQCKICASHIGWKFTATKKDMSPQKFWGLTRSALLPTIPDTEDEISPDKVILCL
Procedure summary: log2 fold change of degron read counts, EGFP-low vs EGFP+ sorted cells (limma voom), compound-induced degradation; higher = more compound-induced degradation of the degron-EGFP fusion; degrons are variants of IKZF1/3 zinc finger 2; compound dose not given here
Condition summary: Jurkat; 18 h; compound: thalidomide
Over roughly 8,300 sequences, “log2 fold change of degron read counts, EGFP-low vs EGFP+ sorted cells (limma voom), compound-induced degradation” has its median near -1.1; the highest 2% begin near 3.2. The entries come from a sample that favours the highest values as a whole.
Assign class by log2 fold change of degron read counts: not lower than 1 means satisfied; lower than 1 means not satisfied.

Use the examples below as a reference point.
| Sequence entry | Classification |
| --- | --- |
| LECPICGFTCTQKGNLLRHIKL [46L_47E_49P_50I_52G_53F_54T_55C_67L_, Q9UKT9] | satisfied |
| FSCDVCGAAFTQKGNLLRHIKL [46F_47S_49D_50V_52G_53A_54A_55F_67L_, Q9UKT9] | not satisfied |
| FWCDVCGASFTQKGNLLRHIKL [46F_47W_49D_50V_52G_53A_54S_55F_67L_, Q9UKT9] | not satisfied |

Input: Quick check: does FCCPVCGASFTQKGNLLRHIKL [46F_47C_49P_50V_52G_53A_54S_55F_67L_, Q9UKT9] have log2 fold change of degron read counts greater than or equal to 1?
Output: satisfied

Input: Quick check: does FYCPVCGASFTQKGNLLRHIKL [46F_47Y_49P_50V_52G_53A_54S_55F_67L_, Q9UKT9] have log2 fold change of degron read counts greater than or equal to 1?
Output: satisfied

Input: Quick check: does FKCNICGAHFTQKGNLLRHIKL [46F_47K_49N_50I_52G_53A_54H_55F_67L_, Q9UKT9] have log2 fold change of degron read counts greater than or equal to 1?
Output: not satisfied

Input: Quick check: does FFCPICGRWFTQKGNLLRHIKL [46F_47F_49P_50I_52G_53R_54W_55F_67L_, Q9UKT9] have log2 fold change of degron read counts greater than or equal to 1?
Output: not satisfied

Taken from the supplement of paper PMC12645437.
